Ref: patent US10766879B2

experimental.target: Abl kinase (Homo sapiens)
Construct: purchased Millipore (KinaseProfiler Service)
Sequence (P00519 whole entry): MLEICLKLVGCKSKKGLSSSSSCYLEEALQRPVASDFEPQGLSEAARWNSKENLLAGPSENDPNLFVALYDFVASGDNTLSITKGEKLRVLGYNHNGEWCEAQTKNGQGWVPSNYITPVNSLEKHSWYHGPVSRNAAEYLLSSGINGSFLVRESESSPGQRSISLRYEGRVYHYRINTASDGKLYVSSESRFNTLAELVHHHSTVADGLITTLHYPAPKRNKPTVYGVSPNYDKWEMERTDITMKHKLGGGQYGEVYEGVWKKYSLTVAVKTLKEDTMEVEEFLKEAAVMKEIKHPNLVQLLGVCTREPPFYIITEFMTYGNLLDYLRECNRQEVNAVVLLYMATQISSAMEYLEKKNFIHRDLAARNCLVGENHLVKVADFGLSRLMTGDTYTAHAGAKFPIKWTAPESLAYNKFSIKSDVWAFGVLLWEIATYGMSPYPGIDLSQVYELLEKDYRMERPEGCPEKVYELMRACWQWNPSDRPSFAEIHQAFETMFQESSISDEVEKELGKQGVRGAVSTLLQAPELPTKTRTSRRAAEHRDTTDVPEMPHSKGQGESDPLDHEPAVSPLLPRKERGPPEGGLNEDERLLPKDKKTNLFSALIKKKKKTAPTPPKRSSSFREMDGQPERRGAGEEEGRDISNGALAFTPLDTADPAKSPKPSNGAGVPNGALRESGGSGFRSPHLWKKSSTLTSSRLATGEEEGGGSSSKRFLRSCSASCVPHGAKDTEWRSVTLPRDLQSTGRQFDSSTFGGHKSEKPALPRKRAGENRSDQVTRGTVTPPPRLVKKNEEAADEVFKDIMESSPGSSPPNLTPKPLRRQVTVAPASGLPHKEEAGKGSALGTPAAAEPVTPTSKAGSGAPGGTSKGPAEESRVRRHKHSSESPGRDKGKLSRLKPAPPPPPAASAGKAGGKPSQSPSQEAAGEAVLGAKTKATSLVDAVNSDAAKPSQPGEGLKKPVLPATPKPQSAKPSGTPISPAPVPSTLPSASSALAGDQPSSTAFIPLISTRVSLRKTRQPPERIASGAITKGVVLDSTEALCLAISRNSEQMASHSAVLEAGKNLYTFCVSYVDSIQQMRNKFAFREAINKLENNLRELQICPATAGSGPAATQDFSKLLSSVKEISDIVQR
experimental.details: KinaseProfiler kinase inhibition assay, Abl
Format: biochemical
applied.conditions: 1 μM compound
# label = TRUE if inhibition at 1 µM >= 20% else FALSE

>>> class_assignment("CCOC(=O)c1cc(Nc2cc(Oc3ccc4[nH]c(C)cc4c3F)ncn2)n[nH]1")
"FALSE"

Prompt: Given the entry CC(=O)Nc1ccc(Nc2cc(Oc3ccc4[nH]c(C)cc4c3F)ncn2)cc1 , answer whether its inhibition at 1 µM meets or surpasses 20%.
Completion: FALSE

Prompt: How about CCN1CCN(c2ccc(Nc3cc(Oc4cc(F)c5[nH]c(C)cc5c4F)ncn3)cc2)CC1 ?
Completion: TRUE

Prompt: How about CC(=O)N1CCN(c2ccc(Nc3ncnc(Oc4ccc5[nH]c(C)cc5c4F)c3F)cc2)CC1 ?
Completion: FALSE
